target: Endothelial lipase (EL) (Homo sapiens (Human)); experiment: EL assay: endothelial lipase activity with fluorescent substrate A10070 in DMPG vesicles; type: biochemical
ASSAY_READOUT: IC50 (nM)

{"COMPOUND": "NS(=O)(=O)CCNC(=O)C(c1nc2ccc(-c3cccc(C(=O)N4CCCC(F)(F)C4)c3)cc2s1)S(=O)(=O)CCC(F)(F)F (stereo not shown) [Example B335]", "IC50 (nM)": 5.5}

(A) CC(C)(O)CNC(=O)c1ccc(-c2ccc3nc(C(C(=O)NCCS(N)(=O)=O)S(=O)(=O)Cc4ccc(F)cc4)sc3c2)cc1 (stereo not shown) [Example B242]
(B) CS(=O)(=O)C(C(=O)NCCS(N)(=O)=O)c1nc2cc(-c3ncccn3)ccc2s1 (stereo not shown) [Example B374]
(C) CC1(O)CCN(C(=O)c2cccc(-c3ccc4nc(C(C(=O)NCCS(N)(=O)=O)S(=O)(=O)CCC(F)(F)F)sc4c3)c2)CC1 (stereo not shown) [Example B341]
Q: # desc sort on IC50 across 3 compounds Use the labels to give the ranking in the order requested.
Ans: C, A, B
(C: 6 nM, A: 2.7 nM, B: 0.8 nM)

----------
biological target: Endothelial lipase (EL) (Homo sapiens (Human), UniProt Q9Y5X9); assay: EL assay: endothelial lipase activity with fluorescent substrate A10070 in DMPG vesicles; assay type: biochemical
Sequence (Q9Y5X9 21-500): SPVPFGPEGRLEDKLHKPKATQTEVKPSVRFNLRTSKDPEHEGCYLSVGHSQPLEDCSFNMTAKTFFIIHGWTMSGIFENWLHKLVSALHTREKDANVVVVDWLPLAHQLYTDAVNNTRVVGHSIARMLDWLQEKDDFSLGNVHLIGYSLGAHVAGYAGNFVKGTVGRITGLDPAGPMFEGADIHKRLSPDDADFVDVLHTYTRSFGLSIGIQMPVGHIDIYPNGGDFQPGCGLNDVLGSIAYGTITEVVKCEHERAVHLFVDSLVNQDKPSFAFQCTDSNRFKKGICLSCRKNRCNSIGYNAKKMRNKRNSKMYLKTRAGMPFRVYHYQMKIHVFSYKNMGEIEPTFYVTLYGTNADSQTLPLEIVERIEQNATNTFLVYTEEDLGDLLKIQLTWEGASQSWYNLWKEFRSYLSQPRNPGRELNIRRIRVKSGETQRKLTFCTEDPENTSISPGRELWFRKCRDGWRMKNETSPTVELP
ASSAY_READOUT: IC50 (nM)

{"COMPOUND": "Cn1nccc1-c1ccc2nc(C(C(=O)NCCS(N)(=O)=O)S(C)(=O)=O)sc2c1 (stereo not shown) [Example B235]", "ASSAY_READOUT": "IC50", "EXPERIMENTAL_RESULT": 5.1}

(I) CC1(O)CN(C(=O)c2ccc(-c3ccc4nc(C(C(=O)NCCS(N)(=O)=O)S(=O)(=O)CCC(F)(F)F)sc4c3)cc2)C1 (stereo not shown) [Example B320]
(II) NS(=O)(=O)CCNC(=O)C(c1nc2ccc(-c3ccc(C(=O)N4CC(F)(F)C4)cc3)cc2s1)S(=O)(=O)Cc1cccc(C(F)(F)F)c1 (stereo not shown) [Example B359]
Q: Hey, which is lower on measured IC50, I or II ? Mark your selection by writing its label.
Ans: I

----------
biological target: Endothelial lipase (EL) (Homo sapiens (Human), UniProt Q9Y5X9); assay: EL assay: endothelial lipase activity with fluorescent substrate A10070 in DMPG vesicles; format: biochemical
pIC50: −log10 of the molar value.
ASSAY_READOUT: pIC50

{"COMPOUND": "C=CCC(C(=O)NCCS(N)(=O)=O)c1nc2ccc(-c3ccccc3)cc2s1 (stereo not shown) [Reference 1, reference compound]", "EXPERIMENTAL_RESULT": 5.03}

(a) COCCOC(=O)Nc1ccc(-c2ccc3nc(C(C(=O)NCCS(N)(=O)=O)S(C)(=O)=O)sc3c2)cc1 (stereo not shown) [Example B64]
(b) CS(=O)(=O)C(C(=O)NCCS(N)(=O)=O)c1nc2ccc(-c3cnn(CCC(F)(F)F)c3)cc2s1 (stereo not shown) [Example B221]
(c) COCc1ccc(-c2ccc3nc(C(C(=O)NCCS(N)(=O)=O)S(=O)(=O)CCC(F)(F)F)sc3c2)cc1 (stereo not shown) [Example B239]
Q: Put the entries in order of pIC50, starting with the largest number. Put the labels in the requested order and list them out.
Ans: a, c, b
